- Protocol notes: Dissociation constant, pKa of the compound
- Assay type: physicochemical
Measured property: pKa

> print(dat)
                              sample.smiles  experimental.value
1  CCn1c(-c2ccc(OC)cc2)cs/c1=N/c1ccc2oc(=O)ccc2c1                7.63

Data request, read-out pKa, for `CCOC(=O)c1s/c(=N/c2ccc3oc(=O)ccc3c2)n(CC)c1C`
7.44

Same thing, different molecule: `CCNC(=S)Nc1ccc2oc(=O)ccc2c1`
5.62

* * *

- Protocol notes: Toxicity against Albino mouse assessed as mortality after 24 hrs
- Format: organism-based
- Measurement setup: in vivo
Measured property: LD50 at 24 h (mg/kg)
Write the value in mg/kg as a bare number.

Data request, read-out LD50 at 24 h, for `CCOC(=O)c1s/c(=N/c2ccc3oc(=O)ccc3c2)n(CC)c1C`
1450

* * *

Survival: recorded values
- Test system: Mus musculus
- Protocol notes: Anticonvulsant activity against strychnine-induced seizures in Albino mouse assessed as survival time at 100 mg/kg, po administered 1 hr before strychnine challenge
- Format: functional
Write the value in min as a bare number.

Study these solved cases before continuing.
> print(dat)
                              sample.smiles  experimental.value
1  CCN1C(=O)/C(=C/c2ccc(Cl)cc2)S/C1=N/c1ccc2oc(=O)ccc2c1                5.18
2         O=C1NC(=O)C(c2ccccc2)(c2ccccc2)N1                13.8
3  CCn1c(-c2ccc(OC)cc2)cs/c1=N/c1ccc2oc(=O)ccc2c1                7.55
4  CCn1c(-c2ccc(Br)cc2)cs/c1=N/c1ccc2oc(=O)ccc2c1                8.36

Then there is this molecule:
Provide value of Survival for this record tested with Mus musculus: `O=C1CS/C(=N/c2nc3ccc4oc(=O)ccc4c3s2)N1`
5.44

* * *

- Test system: Mus musculus
- Protocol notes: Anticonvulsant activity in ip dosed Albino mouse assessed as protection against pentylenetetrazole-induced seizures administered 1 hr before pentylenetetrazole challenge
- Assay type: functional
- Measurement setup: read-out: PD50
Measured property: ED50
Write the quantity with the unit trailing the number.

> print(dat)
                              sample.smiles  experimental.system  experimental.value
1            CCC1(c2ccccc2)C(=O)NC(=O)NC1=O         Mus musculus            16 mg/kg
2  CCn1c(-c2ccc(OC)cc2)cs/c1=N/c1ccc2oc(=O)ccc2c1         Mus musculus           138 mg/kg
3               CCNC(=S)Nc1ccc2oc(=O)ccc2c1         Mus musculus           125 mg/kg

Data request, read-out ED50, for `CCOC(=O)c1s/c(=N/c2ccc3oc(=O)ccc3c2)n(CC)c1C`
95 mg/kg

* * *

- Test system: Mus musculus
- Protocol notes: Anticonvulsant activity against strychnine-induced seizures in Albino mouse assessed as survival time at 100 mg/kg, po administered 1 hr before strychnine challenge
- Type: functional
Survival: recorded values
Write the value in min as a bare number.

Study these solved cases before continuing.
> print(dat)
                              sample.smiles  measured.property  experimental.value
1               CCNC(=S)Nc1ccc2oc(=O)ccc2c1           Survival                3.92
2         O=c1ccc2cc(NC(=S)NC3CCCCC3)ccc2o1           Survival                5.02
3  CCOC(=O)c1s/c(=N/c2ccc3oc(=O)ccc3c2)n(CC)c1C           Survival                   5
4          O=C(CCl)Nc1nc2ccc3oc(=O)ccc3c2s1           Survival                 4.4

Then there is this compound:
Provide value of Survival for this record tested with Mus musculus: `CCNc1nc2ccc3oc(=O)ccc3c2s1`
6.26

* * *

- System: Mus musculus
- Protocol notes: Anticonvulsant activity against strychnine-induced seizures in Albino mouse assessed as survival time at 100 mg/kg, po administered 1 hr before strychnine challenge
- Assay type: functional
Lab note: cut-off is 5 min. Strictly less in Survival is YES. Exactly 5 min or more is NO.

Solved entries:
> print(dat)
                              sample.smiles  assigned.category
1      CCCN1C(=O)CS/C1=N/c1ccc2oc(=O)ccc2c1                 NO
2  COc1ccc(-c2cs/c(=N/c3ccc4oc(=O)ccc4c3)n2C2CCCCC2)cc1                YES

Please state whether Survival is below 5 min for `CCOC(=O)c1s/c(=N/c2ccc3oc(=O)ccc3c2)n(C2CCCCC2)c1C`
YES

Same thing, different molecule: `O=c1ccc2cc(NC(=S)Nc3ccc(Cl)cc3)ccc2o1`
NO

Same thing, different molecule: `CCN1C(=O)/C(=C/c2ccc([N+](=O)[O-])cc2)S/C1=N/c1ccc2oc(=O)ccc2c1`
YES

All figures here come from ChEMBL document CHEMBL1150357.
